The reported numbers originate from patent US9958461B2.

Molecular target: T1, EGFR-Wt (Homo sapiens, UniProt P00533)
T1 construct: with the advantage of testing full-length integral membrane proteins; (GGGGS)2 linker-Cub (human ubiquitin aa 35-76)-GAL4(1-147)-mNFkB(364-550) (C); expressed in transfected cells
Test: MaMTH EGFR-interactor screen, lentiviral preys against EGFR-wildtype bait (interaction score)
Format: cell-based
Conditions: MaMTH interaction score of prey with EGFR-Wt bait, mean
reportedMetric: EGFR-Wt mean
Numbers only.

Task: Field request: EGFR-Wt mean | item: GRAP2 (protein, UniProt O75791 1-330, looked up) GRB2-related adapter protein 2: MEAVAKFDFTASGEDELSFHTGDVLKILSNQEEWFKAELGSQEGYVPKNFIDIQFPKWFHEGLSRHQAENLLMGKEVGFFIIRASQSSPGDFSISVRHEDDVQHFKVMRDNKGNYFLWTEKFPSLNKLVDYYRTNSISRQKQIFLRDRTREDQGHRGNSLDRRSQGGPHLSGAVGEEIRPSMNRKLSDHPPTLPLQQHQHQPQPPQYAPAPQQLQQPPQQRYLQHHHFHQERRGGSLDINDGHCGTGLGSEMNAALMHRRHTDPVQLQAAGRVRWARALYDFEALEDDELGFHSGEVVEVLDSSNPSWWTGRLHNKLGLFPANYVAPMTR
Result: 1.79
